Let's look at some binders and their measured koff.
Biological target: T1, full-length Sudan GP (GPFL) (Sudan virus (SUDV), UniProt Q7T9D9 33-650)
T1 construct: also called Sudan GPFL; GP(S)FL
T1 sequence: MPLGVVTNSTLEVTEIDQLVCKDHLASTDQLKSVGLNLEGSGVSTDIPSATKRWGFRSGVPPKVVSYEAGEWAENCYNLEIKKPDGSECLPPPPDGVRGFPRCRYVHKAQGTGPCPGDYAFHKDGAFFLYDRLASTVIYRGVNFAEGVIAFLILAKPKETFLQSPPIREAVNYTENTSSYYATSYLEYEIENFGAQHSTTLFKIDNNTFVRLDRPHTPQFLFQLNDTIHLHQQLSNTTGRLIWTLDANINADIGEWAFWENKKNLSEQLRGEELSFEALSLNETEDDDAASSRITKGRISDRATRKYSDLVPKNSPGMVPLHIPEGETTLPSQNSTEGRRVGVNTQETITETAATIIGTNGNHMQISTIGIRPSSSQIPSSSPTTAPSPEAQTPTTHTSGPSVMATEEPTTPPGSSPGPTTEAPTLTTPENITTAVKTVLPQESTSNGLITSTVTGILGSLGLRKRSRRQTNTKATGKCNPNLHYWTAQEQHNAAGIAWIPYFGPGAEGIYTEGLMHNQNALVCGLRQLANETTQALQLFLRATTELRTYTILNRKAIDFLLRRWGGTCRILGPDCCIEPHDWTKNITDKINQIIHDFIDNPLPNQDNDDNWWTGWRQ
Assay: BLI, Fab, pH 5.3
State the answer as a number, implicitly in s⁻¹.

Entry Fab generated from 338S (Fab, V domains shown) VH: EVQLVESGGGVVQPGRSLRLSCAASGFTFSQYGMHWVRQAPGKGLECVAVIWFDGSKKYYGDSVKGRFTISRDNSKNTLYLQMNSLRAEDTAVYFCARESLYYYDSGGHYYERGRIDYWGQGTLVTVSS VL: DIQMTQSPSSLSASVGDRVTITCRASQDISNFLAWFQQKPGKAPKSLIYAASSLLSGVPSKFSGSGSGTDFTLTISSLQPEDFATYYCQQYNSYPPTFGQGTKLEIK needs its koff filled in; supply it.
0.000418

Entry Fab generated from 377S (Fab, V domains shown) VH: QVQLVQSGAEVKKPGSSVKVSCKASGGTFSNYAINWVRQAPGQGLEWMGRTIPFLGLTNYAENFQARVTITADKSTGTSYMQLSSLRSEDTAVYFCAKAATSGWSPFDNWGQGTLVTVSS VL: EIVLTQSPGTLSLSPGERATLSCRASQSISSSYFGWYQQKPGQAPRLLIYGASRRAAGIPDRFSCSGSGTDFTLTISRLEPEDFGVYYCQQYGSSPTFGQGTKVEIK needs its koff filled in; supply it.
0.000571

Entry Fab generated from 382S (Fab, V domains shown, also called 382S Fab) VH: QVQLVQSGAEVKKPGSSVKVSCKASGGTFSNYGISWVRQAPGQGLEWMGRNIPIIGIANYAQKFQDRVTITADKSTSTVFMELRSLRYEDTAVYYCARDPLAARRGNWFDPWGQGTLVTVSS VL: DIQMTQSPSTLSASVGDRVTITCRASQSVSSWLAWYQQKPGKAPKLLIYDASTLQSGVPSRFSGSGSGTEFTLTISSLQPDDFATYYCQQYNSYSYTFGQGTKLEIK needs its koff filled in; supply it.
0.000452

Entry Fab generated from 315S (Fab, V domains shown, also called 315S Fab) VH: EVQLVESGGGVVQPGRSLRLSCAASGFTFKTYTMHWVRQAPGKGLEWVAVITDDGVNKKYADSVKGRFTISRDNSKNTLYLQMNSLRLEDTAVYYCARSVVVLAAYPLDYWGQGTMVTVSS VL: DIQMTQSPSSLSASVGDRVTITCRASQTISTYLHWYQQRPGKAPKLLIYAASSLQSGVPSRVSGSGSGTDFTLTITSLQPEDFATYYCLQTYSLPLTFGGGTNVEIK needs its koff filled in; supply it.
8.93e-05

Entry Fab generated from 528S (Fab, V domains shown, also called 528S Fab) VH: EVQLAESGGGVVQPGRSLRLSCAASGFTFNSYGMHWVRQAPGKGLEWVAVIWDDGSKKYYADSVKGRFTISRDNSKNTLFLQMNSLRAEDTAVYYCARETIMFTFGEVIVSSRDNYYMDVWGKGTTVTVSS VL: EIVLTQSPATLSLSPGERATLSCRASQSVSNYLAWYQQKPGQAPRLLIYDASTRAIGIPARFSGVGSGTDFTLTISSLEPEDFAVYYCQQRSNWPPLTFGGGTKVEIK needs its koff filled in; supply it.
4.65e-05
